Biological target: T1, human PD-L1 ECD-His (human, UniProt Q9NZQ7 19-238)
T1 construct: extracellular domain; Analyte in all SPR and BLI runs; also called hPD-L1_ECD-His; hPD-L1 ECD-His; not shown: His tag
T1 sequence (Q9NZQ7 19-238): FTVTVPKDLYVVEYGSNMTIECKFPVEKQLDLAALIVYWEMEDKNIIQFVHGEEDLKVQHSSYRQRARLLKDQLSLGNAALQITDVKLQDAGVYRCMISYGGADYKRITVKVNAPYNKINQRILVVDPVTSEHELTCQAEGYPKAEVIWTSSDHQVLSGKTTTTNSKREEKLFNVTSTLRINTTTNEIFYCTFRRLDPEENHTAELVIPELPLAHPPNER
Experiment: SPR, hPD-L1-His, PL3 variants
RECORDED ENDPOINT: pKd
Please express pKd as -log10 of the molar concentration.

Some solved entries appear below for comparison.
BINDER	pKd
PL3#1 IgG2 (antibody, V domains shown, Human IgG2) VH: QVQLVQSGAEVKKPGSSVKVSCKASGGTFSSYRISWVRQAPGQGLEWMGRIIPILGIANYAQKFQGRVTITADKSTSTAYMELSSLRSEDTAVYYCARSRDGYSVGAFDSWGQGTLVTVSS VL: QSVVTQPPPVSGAPGQRVTISCTGSSSNIGAGYDVHWYQQLPGTAPKLLIYGNSRRPSGVPDRFSGSKSGTSASLAITGLQAEDEADYYCQTYDSSLSRPVVFGGGTKLTVL	9.13
PL3 IgG2 (antibody, V domains shown, Human IgG2) VH: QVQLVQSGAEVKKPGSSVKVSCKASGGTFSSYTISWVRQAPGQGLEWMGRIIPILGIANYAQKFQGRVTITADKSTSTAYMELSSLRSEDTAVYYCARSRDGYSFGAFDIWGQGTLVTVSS VL: QSVVTQPPPVSGAPGQRVTISCTGSSSNIGAGYDVHWYQQLPGTAPKLLIYGNSNRPSGVPDRFSGSKSGTSASLAITGLQAEDEADYYCQSYDSSLSAPVVFGGGTKLTVL	8.18
PL3#7 IgG1 (antibody, V domains shown, Human IgG1) VH: QVQLVQSGAEVKKPGSSVKVSCKASGGTFSSYPISWVRQAPGQGLEWIGRIIPILGIANYAQKFQGRVTITADKSTSTAYMELSSLRSEDTAVYYCARSRDGYAFGAFDIWGQGTLVTVSS VL: QSVVTQPPPVSGAPGQRVTISCTGSSSNIGAGYDVHWYQQLPGTAPKLLIYGNSNRPSGVPDRFSGSKSGTSASLAITGLQAEDEADYYCQTYDSSLSARVVFGGGTKLTVL	9.34

For the next question, use this binder.
Task: Hello, please tell me recorded pKd for this one: PL3 IgG1 (antibody, V domains shown) VH: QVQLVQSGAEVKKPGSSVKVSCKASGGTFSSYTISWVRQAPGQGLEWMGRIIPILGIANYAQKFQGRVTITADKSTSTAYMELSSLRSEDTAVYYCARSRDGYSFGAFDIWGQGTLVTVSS VL: QSVVTQPPPVSGAPGQRVTISCTGSSSNIGAGYDVHWYQQLPGTAPKLLIYGNSNRPSGVPDRFSGSKSGTSASLAITGLQAEDEADYYCQSYDSSLSAPVVFGGGTKLTVL
Result: 8.26

Provenance of the data: patent US20190225691A1
